Target: human EHMT1 982-1266 (Homo sapiens, UniProt Q9H9B1)
Sequence (Q9H9B1 982-1266): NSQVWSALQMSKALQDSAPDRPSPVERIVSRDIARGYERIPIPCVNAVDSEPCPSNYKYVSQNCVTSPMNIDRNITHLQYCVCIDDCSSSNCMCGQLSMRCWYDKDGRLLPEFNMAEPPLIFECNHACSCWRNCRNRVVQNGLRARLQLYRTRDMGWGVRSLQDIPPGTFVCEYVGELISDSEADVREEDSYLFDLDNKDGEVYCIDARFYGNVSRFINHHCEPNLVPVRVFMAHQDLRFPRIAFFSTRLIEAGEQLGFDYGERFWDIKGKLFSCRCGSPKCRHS
Experiment: EHMT1 enzyme assay on histone peptide substrate (3H-SAM SPA)
Conditions: EHMT1 IC50, recombinant human EHMT1 982-1266, histone peptide substrate
pIC50: −log10 of the molar value.

| compound | pIC50 |
| --- | --- |
| CNc1cc(C)nc(Nc2cc3c(c(C4=CCNC[C@@H](O)C4)c2F)OC[C@@H]3C)n1 (stereo in doubt) | > 7.00 |
| CNc1cc(C)nc(Nc2cc3c(c(C4=CCN(C)CCC4)c2F)OCC32CC2)n1 | > 7.00 |
| CNc1nc(Nc2cc3c(c(C4=CCN(C)CCC4)c2)OCC3)nc(C)c1F | 6.30 to 7.00 |
| CNc1nc(Nc2cc3c(c(C4=CCN(C)CCC4)c2F)OCC3)nc(C)c1Cl | 6.30 to 7.00 |

###

In this section, each of the compounds is paired with its reported IC50.
molecular target: human EHMT1 982-1266 (Homo sapiens, UniProt Q9H9B1); experiment: EHMT1 enzyme assay on histone peptide substrate (3H-SAM SPA); details: EHMT1 IC50, recombinant human EHMT1 982-1266, histone peptide substrate
measured_quantity: IC50

| compound | experimental_value |
| --- | --- |
| [2H]C([2H])([2H])Nc1nc(Nc2cc3c(c(C4=CCNCCC4)c2)OCC3)nc(C)c1F | 100 to 500 nM |
| CNc1cc(C)nc(Nc2cc3c(c(N4CCCNCC4)c2)OCC3)n1 | 500 to 2000 nM |
| [2H]Cc1nc(Nc2cc3c(c(C4=CCN(C)CCC4)c2)OCC3)nc(NC([2H])([2H])[2H])c1F | 100 to 500 nM |
| CNc1cc(C)nc(Nc2cc3c(c(C4=C[C@H]5CNC[C@H]5C4)c2)OC(F)(F)O3)n1 (racemic) | 100 to 500 nM |
| CNc1nc(Nc2cc3c(c(C4=CCNCCC4)c2)OCC3)nc(C)c1Cl | 100 to 500 nM |
| CCN1CC=C(c2c(F)c(Nc3nc(C)cc(NC)n3)cc3c2OCC3)CCC1 | < 100 nM |
| [2H]C([2H])([2H])Nc1cc(C)nc(Nc2cc3c(c(C4=CCN(C)CCC4)c2F)OCC3)n1 | < 100 nM |
| CNc1cc(C)nc(Nc2cc3c(c(C4=CCN(C)CCC4)c2)OCC3)c1 | < 100 nM |

###

test system: H3K9me2 in HCT116 cells; test: HCT116 H3K9me2 in-cell western assay; format: cell-based; conditions: Homo sapiens, HCT-116, 72 h, HCT116 cells, 72 hours incubation; read-out: H3K9me2 ICW IC50
pIC50: −log10 of the molar value.

| molecule | test_system | pIC50 |
| --- | --- | --- |
| Cc1cc(N(C)C)nc(Nc2cc3c(c(C4=CCNCCC4)c2)OCC3)n1 | H3K9me2 in HCT116 cells | 6.30 to 7.00 |
| CNc1cc(Nc2cc3c(c(C4=CCNCCC4)c2)OCC3)nc(C)c1F | H3K9me2 in HCT116 cells | 6.30 to 7.00 |
| CNc1cc(C)nc(Nc2cc3c(c(C4=CCN(C)CCC4)c2)OCO3)n1 | H3K9me2 in HCT116 cells | > 7.00 |
| CNc1cc(C)nc(Nc2cc3c(c(C4=CCNCCC4)c2F)OCCC3)n1 | H3K9me2 in HCT116 cells | > 7.00 |
| [2H]Cc1nc(Nc2cc3c(c(C4=CCN(C)CCC4)c2F)OCC3)nc(NC)c1F | H3K9me2 in HCT116 cells | > 7.00 |
| CNc1cc(C)nc(Nc2cc3c(c(C4=CCNC(C)CC4)c2C)OCC3)n1 (single isomer, unassigned) | H3K9me2 in HCT116 cells | > 7.00 |
| CNc1cc(C)nc(Nc2cc3c(c(OCCN4CCCC4)c2)OCC3)n1 | H3K9me2 in HCT116 cells | 5.70 to 6.30 |
| CNc1cc(C)nc(Nc2cc3c(c(C4=CCNCCC4)c2C)OCC3)n1 | H3K9me2 in HCT116 cells | > 7.00 |
| CNc1cc(C2CCCCC2)nc(Nc2cc3c(c(OCCCN4CCCC4)c2)OCC3)n1 | H3K9me2 in HCT116 cells | < 5.70 |
| CNc1nc(Nc2cc3c(c(C4=CCN(C)CCC4)c2F)OCO3)nc(C)c1F | H3K9me2 in HCT116 cells | 6.30 to 7.00 |
| CNc1ccnc(Nc2cc3c(c(C4=CCNCCC4)c2)OCO3)n1 | H3K9me2 in HCT116 cells | > 7.00 |
| [2H]C([2H])([2H])Nc1nc(Nc2cc3c(c(C4=CCNCCC4)c2F)OCC3)nc(C)c1F | H3K9me2 in HCT116 cells | > 7.00 |
| [2H]C([2H])([2H])CNc1cc(C)nc(Nc2cc3c(c(C4=CCNCCC4)c2)OCCO3)n1 | H3K9me2 in HCT116 cells | 6.30 to 7.00 |
| [2H]Cc1cc(NC)nc(Nc2cc3c(c(C4=CCN(C)CCC4)c2)OCC3)n1 | H3K9me2 in HCT116 cells | > 7.00 |
| CNc1nc(Nc2cc3c(c(C4=CCN(C)CCC4)c2F)OCC3)nc(C)c1F | H3K9me2 in HCT116 cells | 6.30 to 7.00 |
| CNc1cc(C)nc(Nc2cc3c(c(C4=CCNCCC4)c2)OCO3)n1 | H3K9me2 in HCT116 cells | > 7.00 |
| Cc1cc(NCC2CCCO2)nc(Nc2cc3c(c(C4=CCN(C)CCC4)c2)OCC3)n1 (stereo not drawn) | H3K9me2 in HCT116 cells | 6.30 to 7.00 |
| CNc1cc(C)nc(Nc2cc3c(c(C4=CCN(C)CC(O)C4)c2F)OCC3)n1 (single isomer, unassigned) [Compound 352] | H3K9me2 in HCT116 cells | > 7.00 |
| CNc1cc(C)nc(Nc2cc3c(c(C4C[C@H]5CNC[C@H]5C4)c2)OCCO3)n1 (stereo partly drawn) | H3K9me2 in HCT116 cells | 6.30 to 7.00 |
| [2H]C([2H])([2H])N1CC=C(c2c(F)c(Nc3nc(C)cc(NC)n3)cc3c2OCC3)CCC1 | H3K9me2 in HCT116 cells | > 7.00 |
| [2H]C([2H])([2H])CNc1cc(C)nc(Nc2cc3c(c(C4=CCNCCC4)c2)OCCC3)n1 | H3K9me2 in HCT116 cells | 6.30 to 7.00 |
| CNc1nc(Nc2cc3c(c(C4=CCNCCC4)c2)OCO3)nc(C)c1F | H3K9me2 in HCT116 cells | 6.30 to 7.00 |
| CNc1nc(Nc2cc3c(c(C4=CCN(C)CCC4)c2F)OCC3)nc(C)c1OC | H3K9me2 in HCT116 cells | 6.30 to 7.00 |
| CNc1cc(C2CC2)nc(Nc2cc3c(c(C4=CCN(C)CCC4)c2)OCC3)n1 | H3K9me2 in HCT116 cells | 6.30 to 7.00 |
| [2H]Cc1cc(NC([2H])([2H])[2H])nc(Nc2cc3c(c(C4=CCNCCC4)c2)OCCC3)n1 | H3K9me2 in HCT116 cells | > 7.00 |
| CNc1cc(C)nc(Nc2cc3c(c(C4=CCNCCC4)c2)COC3)n1 | H3K9me2 in HCT116 cells | 6.30 to 7.00 |
| CNc1cc(C)nc(Nc2cc3c(c(N4CCNCC4)c2)OCC3)n1 | H3K9me2 in HCT116 cells | < 5.70 |
| [2H]Cc1nc(Nc2cc3c(c(C4=CCNCCC4)c2)OCC3)nc(NC([2H])([2H])[2H])c1F | H3K9me2 in HCT116 cells | 6.30 to 7.00 |
| [2H]Cc1cc(NC([2H])([2H])[2H])nc(Nc2cc3c(c(C4=CCNCCC4)c2F)OCC3)n1 | H3K9me2 in HCT116 cells | > 7.00 |
| CNc1cc(C)nc(Nc2cc3c(c(C4=CCC(N)CC4)c2)OCC3)n1 (stereo not drawn) | H3K9me2 in HCT116 cells | 5.70 to 6.30 |
| [2H]C([2H])([2H])Nc1cc(C)nc(Nc2cc3c(c(C4=CCN(C)CCC4)c2)OCC3)n1 | H3K9me2 in HCT116 cells | 6.30 to 7.00 |
| [2H]C([2H])([2H])Nc1nc(Nc2cc3c(c(C4=CCNCCC4)c2)OCC3)nc(C)c1F | H3K9me2 in HCT116 cells | 6.30 to 7.00 |
| CNc1ccnc(Nc2cc3c(c(C4=CCN(C)CCC4)c2)OCO3)n1 | H3K9me2 in HCT116 cells | 6.30 to 7.00 |
